# TGT: HCV polymerase (NS5B) type 1b (Hepatitis C virus genotype 1b)
# Construct: a region encoding NS5B (J Virol 1991 March, 65(3), 1105-13, 544 amino acids after deletion of 47 amino acids on the C-terminal); 6xHis (C); made in house; host or cells: Escherichia coli
# Sequence (P26663 2420-2963): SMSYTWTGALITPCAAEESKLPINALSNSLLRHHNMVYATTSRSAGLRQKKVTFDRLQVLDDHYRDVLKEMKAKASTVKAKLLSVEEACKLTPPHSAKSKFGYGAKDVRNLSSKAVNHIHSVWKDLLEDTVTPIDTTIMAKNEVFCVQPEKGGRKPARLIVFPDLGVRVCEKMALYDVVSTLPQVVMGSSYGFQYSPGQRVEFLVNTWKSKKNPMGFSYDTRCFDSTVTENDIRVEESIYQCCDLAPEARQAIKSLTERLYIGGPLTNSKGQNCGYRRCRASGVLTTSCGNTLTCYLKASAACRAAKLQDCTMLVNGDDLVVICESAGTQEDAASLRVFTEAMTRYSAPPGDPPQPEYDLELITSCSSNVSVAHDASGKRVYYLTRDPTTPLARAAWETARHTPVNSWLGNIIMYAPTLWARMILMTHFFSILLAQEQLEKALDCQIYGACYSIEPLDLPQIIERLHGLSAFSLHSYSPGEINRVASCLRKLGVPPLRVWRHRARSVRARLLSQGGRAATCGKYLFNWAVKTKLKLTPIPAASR
# ASSAY INFO: Assay of enzyme (HCV polymerase) inhibitory activity, type 1b enzyme
# Type: biochemical, HCV BK strain (type 1b)
# SETUP CONDITIONS: HCV polymerase inhibitory activity (IC50), 1b, type 1b enzyme 0.5 μg/ml, 25° C., 60 min
pIC50: −log10 of the molar value.
ASSAY METRIC: pIC50

Illustrative cases are given below, each with its answer.
CC(=O)N1CCN(S(=O)(=O)c2ccc(C(C)C)cc2)C(C(=O)NCc2ccc(-c3ccccc3Cl)cc2)C1 (stereo not shown); < 6.00
CCC(F)(F)c1ccc(CNC(=O)[C@H]2CN(C(=O)Cc3nnnn3C)CCN2S(=O)(=O)c2ccc(OC(F)(F)F)cc2)cc1; 6.00 to 7.00
CC(=O)N1CCN(S(=O)(=O)c2ccc3c(c2)CCO3)C(C(=O)NCc2ccc(C(F)(F)F)cc2)C1 (stereo not shown); < 6.00
CC(C)c1ccc(S(=O)(=O)N2CCN(C(=O)c3ccccc3)CC2C(=O)NCc2ccc(C(F)(F)F)cc2)cc1 (stereo not shown); < 6.00
COC(=O)CCC(=O)N1CCN(S(=O)(=O)c2ccc(C(F)(F)F)cc2)[C@@H](C(=O)NCc2ccc(C(C)C)cc2)C1; 6.00 to 7.00

Now take the following compound into account.
Consider the compound shown here: CC(=O)N1CCN(S(=O)(=O)c2ccc(C(C)C)cc2)C(C(=O)NCc2ccc(Oc3ccccc3)cc2)C1 (stereo not shown) What is its recorded pIC50?
< 6.00
